Assay: Acute toxicity, oral administration
Details: mouse, in vivo; oral administration
Reported values of LD50 at 120 h for individual entries

Cc1c(C)c2c(c(C)c1O)CCC(COc1ccc(CC3SC(=O)NC3=O)cc1)O2 (stereo not shown) ... > 300 mg/kg

Ask: Bench note: what LD50 at 120 h did CCOC(=O)Oc1c(C)c(C)c2c(c1C)CCC(C)(COc1ccc(CC3SC(=O)NC3=O)cc1)O2 (stereo not shown) show?
Reply: > 300 mg/kg

Ask: Next: CC1(COc2ccc(CC3SC(=O)NC3=O)cc2)CCc2cc(O)c(C(C)(C)C)cc2O1 (stereo not shown)
Reply: > 300 mg/kg

Ask: Next: CC1(COc2ccc(CC3SC(=O)NC3=O)cc2)CCc2cc(O)ccc2O1 (stereo not shown)
Reply: > 300 mg/kg

Reference source: patent US5804590A
